Each recorded value in this set is attributed to paper PMC12527034.

- target under test: ATeam1.03 (WT) (Bacillus subtilis, UniProt P37812)
- Construct: epsilon subunit flanked by mseCFP and mVenus; polyhistidine-tagged, expressed in E. coli BL21(DE3)
- Sequence (P37812 whole entry): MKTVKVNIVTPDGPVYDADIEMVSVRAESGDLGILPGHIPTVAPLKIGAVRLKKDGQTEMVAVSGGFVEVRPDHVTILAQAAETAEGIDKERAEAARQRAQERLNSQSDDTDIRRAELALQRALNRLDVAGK
- protocol: Steady-state FRET ratio ATP dose response of 0.125 uM purified ATeam1.03 or ATeam1.03YEMK sensor at room temperature in 50 mM MOPS-KOH pH 7.3, 50 mM KCl, 0.5 mM free Mg2+, 0.05% Triton-X100 (4 to 9 replicates).
- protocol conditions: SD, n = 4; read-out: ATP Affinity Kapp (ATeam1.03 and ATeam1.03YEMK)
readout kind: Kd (mM)
Please state the figure in mM; there is no need to write the unit.

Task item: Entry under review: Nc1ncnc2c1ncn2[C@@H]1O[C@H](COP(=O)(O)OP(=O)(O)OP(=O)(O)O)[C@@H](O)[C@H]1O [ATP, Adenosine triphosphate] . Reported Kd?
Reply: 1

----------
- target under test: ATeam3.10 R115E (Bacillus sp. PS3, UniProt A0A0M5MQR7, R115E)
- Construct: gene uncC; epsilon subunit flanked by mseCFP and mVenus; polyhistidine-tagged
- Sequence (A0A0M5MQR7 entry or part of it R115E): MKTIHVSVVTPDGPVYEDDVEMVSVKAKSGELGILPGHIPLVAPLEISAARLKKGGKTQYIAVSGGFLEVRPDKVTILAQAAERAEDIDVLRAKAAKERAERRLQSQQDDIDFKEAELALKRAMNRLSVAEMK
- protocol: Steady-state FRET ratio ATP dose response of 0.125 uM purified ATeam3.10 sensor at room temperature in 50 mM MOPS-KOH pH 7.3, 50 mM KCl, 0.5 mM free Mg2+, 0.05% Triton-X100 (4 to 9 replicates).
- Assay type: binding
- protocol conditions: SD, n = 4; read-out: ATP Affinity Kapp
readout kind: Kd (nM)
Please state the figure in nM; there is no need to write the unit.

Task item: Entry under review: Nc1ncnc2c1ncn2[C@@H]1O[C@H](COP(=O)(O)OP(=O)(O)OP(=O)(O)O)[C@@H](O)[C@H]1O [ATP, Adenosine triphosphate] . Reported Kd?
Reply: 300

----------
- target under test: ATeam3.10 R103E/R115E (Bacillus sp. PS3, UniProt A0A0M5MQR7, R103E/R115E)
- protocol: Steady-state FRET ratio ATP dose response of 0.125 uM purified ATeam3.10 sensor at room temperature in 50 mM MOPS-KOH pH 7.3, 50 mM KCl, 0.5 mM free Mg2+, 0.05% Triton-X100 (4 to 9 replicates).
- Format: binding
- Design: gene uncC; epsilon subunit flanked by mseCFP and mVenus; polyhistidine-tagged
- protocol conditions: SD, n = 4; read-out: ATP Affinity Kapp
readout kind: pKd
# pKd is unitless: minus log10 of the molar concentration; print number only

Task item: Query pKd on ATeam3.10 R103E/R115E (Bacillus sp. PS3, UniProt A0A0M5MQR7, R103E/R115E) for Nc1ncnc2c1ncn2[C@@H]1O[C@H](COP(=O)(O)OP(=O)(O)OP(=O)(O)O)[C@@H](O)[C@H]1O [ATP, Adenosine triphosphate]
Reply: 6.10

----------
- target under test: ATeam3.10 R103A (Bacillus sp. PS3, UniProt A0A0M5MQR7, R103A)
- Construct: gene uncC; epsilon subunit flanked by mseCFP and mVenus; polyhistidine-tagged
- protocol: Steady-state FRET ratio ADP dose response of 0.125 uM purified ATeam3.10 sensor at room temperature in 50 mM MOPS-KOH pH 7.3, 50 mM KCl, 0.5 mM MgCl2, 0.05% Triton-X100 (4 to 9 replicates).
- Assay type: binding
- protocol conditions: n = 4
readout kind: pKd
# pKd is unitless: minus log10 of the molar concentration; print number only

Task item: Entry under review: Nc1ncnc2c1ncn2[C@@H]1O[C@H](COP(=O)(O)OP(=O)(O)O)[C@@H](O)[C@H]1O [ADP, Adenosine diphosphate] . Reported pKd?
Reply: 4.09
